testSystem: myristoylating enzyme from yeast (N-myristoylglycylpeptide synthetase) (Saccharomyces cerevisiae, UniProt P14743)
Construct: partially purified from a crude homogenate of the cultured yeast cells by fractionation with 51-70% (NH4)2 SO4; endogenous in cells; host or cells: S. cerevisiae strain JR153; ammonium sulfate cut, DEAE-Sepharose CL-6B, CoA-agarose
Sequence (P14743 whole entry): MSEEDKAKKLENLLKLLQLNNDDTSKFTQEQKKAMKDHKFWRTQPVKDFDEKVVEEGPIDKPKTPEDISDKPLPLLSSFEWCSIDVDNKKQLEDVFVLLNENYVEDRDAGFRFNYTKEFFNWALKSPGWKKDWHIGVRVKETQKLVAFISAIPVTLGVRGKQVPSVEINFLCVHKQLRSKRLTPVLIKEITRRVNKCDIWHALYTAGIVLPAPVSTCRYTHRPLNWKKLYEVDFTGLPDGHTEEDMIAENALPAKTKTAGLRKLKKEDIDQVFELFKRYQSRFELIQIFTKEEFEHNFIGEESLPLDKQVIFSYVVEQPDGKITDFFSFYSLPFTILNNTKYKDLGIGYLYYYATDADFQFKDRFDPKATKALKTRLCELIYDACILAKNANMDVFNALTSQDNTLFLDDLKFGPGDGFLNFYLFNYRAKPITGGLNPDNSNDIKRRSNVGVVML
protocolNotes: Octapeptide substrate specificity / kinetic characterization with partially purified yeast myristoylating enzyme (Table II)
Format: biochemical
conditionParameters: inhibition of myristoylation of the substrate Gly-Asn-Ala-Ala-Ala-Ala-Arg-Arg; partially purified yeast enzyme
Where no end group is shown, it is not given here.
# Ki per record follows
property: Ki (µM)

1) GVAAAARR-NH2 [Gly--Val--Ala--Ala--Ala--Ala--Arg--Arg] ... 60
2) GYAAAARR-NH2 [Gly--Tyr--Ala--Ala--Ala--Ala--Arg--Arg, Gly-Tyr-Ala-Ala-Ala-Ala-Arg-Arg] ... 150
3) GFAAAARR-NH2 [Gly--Phe--Ala--Ala--Ala--Ala--Arg--Arg, Gly-Phe-Ala-Ala-Ala-Ala-Arg-Argp] ... 150
4) GLAAAARR-NH2 [Gly--Leu--Ala--Ala--Ala--Ala--Arg--Arg] ... 60

Hey, just so you know, these numbers are from patent US4709012A.
